B1: FCHO1 (parent)
chain: FSDPSQSDPETKDFWLNMAALTEA

# Variants of: B1
# test: protein stability index of a GFP-peptide fusion (GPS, HEK-293T) (PSI 1-6); higher = more stable;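 further: lentivirally expressed fusions sorted by FACS into six bins by GFP to DsRed ratio, PSI derived from sequencing read proportions per bin multiplied by bin number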
# details: c terminus: a fixed tail appended
Could you please report measured protein stability index for the items listed next?
Give bare numbers.

These solved cases illustrate the format of a correct answer.
biosequence	protein stability index
FSDPSQSDPETKDFWLNMAARTEA [L21R]	2.95
FSDPSQSDPETKDFWLNMAALTPA [E23P]	2.33

Now consider a different variant.
Prompt line: Note down protein stability index recorded for FSDPSQSDPETKDFWLNMAQLTEA [A20Q]
Response line: 2.63
